Attribution: patent US12421240B2

Target under test: human TLR9 (Homo sapiens)
Sequence (Q9NR96 26-1032): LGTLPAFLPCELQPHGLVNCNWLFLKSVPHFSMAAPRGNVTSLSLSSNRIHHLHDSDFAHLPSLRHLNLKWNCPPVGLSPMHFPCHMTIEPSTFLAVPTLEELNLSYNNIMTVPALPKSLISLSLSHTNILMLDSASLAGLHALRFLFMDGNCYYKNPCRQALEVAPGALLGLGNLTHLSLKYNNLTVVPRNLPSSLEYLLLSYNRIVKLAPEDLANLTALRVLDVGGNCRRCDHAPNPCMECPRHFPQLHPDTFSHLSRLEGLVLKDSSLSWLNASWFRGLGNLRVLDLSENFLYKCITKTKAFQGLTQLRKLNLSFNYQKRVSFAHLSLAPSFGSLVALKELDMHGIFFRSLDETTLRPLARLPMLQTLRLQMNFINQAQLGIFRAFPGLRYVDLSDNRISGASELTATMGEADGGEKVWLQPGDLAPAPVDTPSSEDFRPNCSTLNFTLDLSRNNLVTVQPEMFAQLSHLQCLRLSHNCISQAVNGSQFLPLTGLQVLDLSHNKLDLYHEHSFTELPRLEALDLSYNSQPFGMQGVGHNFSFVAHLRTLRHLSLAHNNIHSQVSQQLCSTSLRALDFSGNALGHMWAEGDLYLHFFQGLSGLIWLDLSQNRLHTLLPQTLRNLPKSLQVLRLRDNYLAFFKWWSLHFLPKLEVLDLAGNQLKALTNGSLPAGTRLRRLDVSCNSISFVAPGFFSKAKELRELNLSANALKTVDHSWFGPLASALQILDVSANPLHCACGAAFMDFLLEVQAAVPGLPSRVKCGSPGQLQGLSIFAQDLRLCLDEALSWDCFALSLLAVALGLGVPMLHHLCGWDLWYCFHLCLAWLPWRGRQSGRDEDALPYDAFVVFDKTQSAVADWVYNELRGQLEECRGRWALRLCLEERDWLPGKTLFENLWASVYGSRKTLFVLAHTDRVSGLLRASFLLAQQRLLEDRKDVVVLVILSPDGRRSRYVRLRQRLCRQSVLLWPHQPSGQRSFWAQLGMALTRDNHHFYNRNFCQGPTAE
Assay summary: HEK293-Blue-hTLR-9 cells assay (SEAP reporter, ODN2006 stimulation)
Measurement context: HEK293-Blue-hTLR9 cells, ODN2006 ligand, 20 hrs; read-out: HEK/hTLR9 IC50
Description: The following tests were carried out in order to determine the activity of the compounds of formula (I), (Ia) or (Ib) in HEK293-Blue-hTLR-7/8/9 cells assay. HEK293-Blue-hTLR-9 Cells Assay: A stable HEK293-Blue-hTLR-9 cell line was purchased from InvivoGen (Cat. #: hkb-htlr9, San Diego, California, USA). These cells were originally designed for studying the stimulation of human TLR9 by monitoring the activation of NF-κB. […]
# Lookup of reported pIC50 keyed by entry
Lab note: report pIC50 as minus log10 of the concentration in molar units, number only.

Worked set:
In [3]: df
Out[3]:
                           molecular_string  reported_measurement
0  C[C@@H]1CN(c2ccc(C#N)c3ncccc23)C[C@@H]2CCN(Cc3ccc4c(c3)CCNC4)CCN21                  7.31
1  C[C@@H]1CN(c2ccc(C#N)c3ncccc23)C[C@@H]2CCN(c3ccc4c(n3)CCNC4)CCN21                  7.00
2  C[C@@H]1CN(c2ccc(C#N)c3ncccc23)C[C@@H]2CCN(Cc3ccc4c(c3)CNCC4)CCN21                  7.36
3  C[C@@H]1CN(c2ccc(C#N)c3ncccc23)C[C@@H]2CCN(c3ccc([C@H]4CNCCO4)cc3)CCN21                  7.28
4  C[C@@H]1CN(c2ccc(C#N)c3ncccc23)C[C@@H]2CCN(c3ccc4c(n3)CNCC4)CCN21                  7.14

The record that follows has no pIC50 shown yet.
q: GET /values?readout=pIC50&item= C[C@@H]1CN(c2ccc(C#N)c3ncccc23)C[C@@H]2CCN(Cc3ccc(N4CCOC[C@H](N)C4)cn3)CCN21
a: 6.98

* * *

Target under test: human TLR7 (Homo sapiens, UniProt Q9NYK1)
Sequence (Q9NYK1 27-1049): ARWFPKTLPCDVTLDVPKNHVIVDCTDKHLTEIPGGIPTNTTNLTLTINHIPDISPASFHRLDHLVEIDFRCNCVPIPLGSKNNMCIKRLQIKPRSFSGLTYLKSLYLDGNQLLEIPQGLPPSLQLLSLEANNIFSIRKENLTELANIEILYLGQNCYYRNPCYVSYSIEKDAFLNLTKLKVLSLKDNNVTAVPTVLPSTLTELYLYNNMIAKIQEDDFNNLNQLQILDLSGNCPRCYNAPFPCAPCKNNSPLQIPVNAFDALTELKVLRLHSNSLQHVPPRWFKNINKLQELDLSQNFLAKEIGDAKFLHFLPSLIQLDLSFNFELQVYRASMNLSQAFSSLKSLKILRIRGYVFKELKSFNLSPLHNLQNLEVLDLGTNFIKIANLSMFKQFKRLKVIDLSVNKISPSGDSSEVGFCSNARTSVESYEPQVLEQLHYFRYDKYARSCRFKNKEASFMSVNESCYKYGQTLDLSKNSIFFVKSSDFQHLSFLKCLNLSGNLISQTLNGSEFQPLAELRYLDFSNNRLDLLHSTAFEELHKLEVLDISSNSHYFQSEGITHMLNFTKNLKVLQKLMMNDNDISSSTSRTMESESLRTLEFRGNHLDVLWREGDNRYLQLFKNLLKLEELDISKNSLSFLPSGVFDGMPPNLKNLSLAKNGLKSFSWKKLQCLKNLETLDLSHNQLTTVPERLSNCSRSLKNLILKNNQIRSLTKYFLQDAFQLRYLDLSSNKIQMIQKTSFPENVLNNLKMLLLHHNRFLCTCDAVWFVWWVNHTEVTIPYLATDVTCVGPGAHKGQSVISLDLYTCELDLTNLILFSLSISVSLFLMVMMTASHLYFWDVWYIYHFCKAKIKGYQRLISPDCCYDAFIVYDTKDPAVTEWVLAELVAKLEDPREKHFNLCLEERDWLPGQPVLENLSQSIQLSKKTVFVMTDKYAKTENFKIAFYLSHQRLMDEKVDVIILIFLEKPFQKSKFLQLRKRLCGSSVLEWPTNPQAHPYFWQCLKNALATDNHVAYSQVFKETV
Assay summary: HEK293-Blue-hTLR-7 cells assay (SEAP reporter, R848 stimulation)
Type: cell-based
Measurement context: HEK293-Blue-hTLR7 cells, R848 ligand, 20 hrs; read-out: HEK/hTLR7 IC50
# Lookup of reported pIC50 keyed by entry
Lab note: report pIC50 as minus log10 of the concentration in molar units, number only.

In [3]: df
Out[3]:
                                   molecule  attribute_measured  reported_measurement
0  C[C@@H]1CN(c2ccc(C#N)c3ncccc23)C[C@@H]2CCN(Cc3cc4c(cn3)CNCC4)CCN21 [Example 8]               pIC50                  7.84
1  C[C@@H]1CN(c2ccc(C#N)c3ncccc23)C[C@@H]2CCN(Cc3ncc(N4CCNCC4)cc3F)CCN21 [Example 23]               pIC50                  8.54
2  C[C@@H]1CN(c2ccc(C#N)c3ncccc23)C[C@@H]2CCN(c3ccc(N4CCNCC4)nc3)CCN21 [Example 1]               pIC50                  7.05
3  C[C@@H]1CN(c2ccc(C#N)c3ncccc23)C[C@@H]2CCN(c3ccc4c(n3)CNCC4)CCN21 [Example 5]               pIC50                  7.41
4  CO[C@@H]1CN(c2cnc(CN3CC[C@H]4CN(c5ccc(C#N)n6ncc(F)c56)C[C@@H](C)N4CC3)c(F)c2)C[C@H]1N [Example 27]               pIC50                  8.07

The record that follows has no pIC50 shown yet.
q: GET /values?readout=pIC50&item= C[C@@H]1CN(c2ccc(C#N)c3ncccc23)C[C@@H]2CCN(Cc3cccc(N4CCNCC4)n3)CCN21 [Example 18]
a: 7.92
